The reported numbers originate from ChEMBL document CHEMBL1961873.

target.or.test.system: Serine/threonine-protein kinase 3 (Homo sapiens) (UniProt Q13188);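 also: reported value is the mean percent inhibition of MST2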
Sequence (whole entry): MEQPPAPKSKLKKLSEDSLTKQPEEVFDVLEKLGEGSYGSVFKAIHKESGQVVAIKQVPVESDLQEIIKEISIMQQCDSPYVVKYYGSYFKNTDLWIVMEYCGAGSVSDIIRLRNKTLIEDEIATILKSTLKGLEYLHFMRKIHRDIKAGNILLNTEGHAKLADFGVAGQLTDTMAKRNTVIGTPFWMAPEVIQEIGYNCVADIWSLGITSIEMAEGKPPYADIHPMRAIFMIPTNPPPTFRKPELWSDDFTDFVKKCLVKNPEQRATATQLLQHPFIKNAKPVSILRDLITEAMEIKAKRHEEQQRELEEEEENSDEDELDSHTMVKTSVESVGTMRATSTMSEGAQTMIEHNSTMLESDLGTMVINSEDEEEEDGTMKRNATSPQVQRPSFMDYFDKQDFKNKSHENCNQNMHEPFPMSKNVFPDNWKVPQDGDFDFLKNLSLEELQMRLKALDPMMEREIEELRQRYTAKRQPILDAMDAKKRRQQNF
stated.conditions: at 0.1 µM
Would you please tag the item t when its inhibition is 6% or above, and f when it is below?

INSERT INTO measurements (chemical_string, target_or_test_system, discrete_label) VALUES
  ('COc1cc2c(cc1Nc1nc(N3CCc4ccccc43)c3cc[nH]c3n1)N(C(=O)CN(C)C)CC2', 'Serine/threonine-protein kinase 3 (Homo sapiens) (UniProt Q13188)', 't'),
  ('COc1ccc(-c2ccncc2)cc1C(N)=O', 'Serine/threonine-protein kinase 3 (Homo sapiens) (UniProt Q13188)', 'f'),
  ('O=C1NC(=O)C(c2cccc(Cl)c2)=C1Nc1ccc(O)c(Cl)c1', 'Serine/threonine-protein kinase 3 (Homo sapiens) (UniProt Q13188)', 't'),
  ('CS(=O)(=O)CCNCc1nc(-c2ccc3ncnc(Nc4ccc(F)c(Cl)c4)c3c2)cs1', 'Serine/threonine-protein kinase 3 (Homo sapiens) (UniProt Q13188)', 'f'),
  ('NS(=O)(=O)c1ccc(N/N=C2\C(=O)Nc3ccc(C(=O)NCCc4c[nH]cn4)cc32)cc1', 'Serine/threonine-protein kinase 3 (Homo sapiens) (UniProt Q13188)', 't');

---

target.or.test.system: Casein kinase I isoform gamma-3 (Homo sapiens) (UniProt Q9Y6M4);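 also: mean inhibition of CK1-g3, GSK PKIS screen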
Sequence (Q9Y6M4 whole entry, looked up, canonical isoform): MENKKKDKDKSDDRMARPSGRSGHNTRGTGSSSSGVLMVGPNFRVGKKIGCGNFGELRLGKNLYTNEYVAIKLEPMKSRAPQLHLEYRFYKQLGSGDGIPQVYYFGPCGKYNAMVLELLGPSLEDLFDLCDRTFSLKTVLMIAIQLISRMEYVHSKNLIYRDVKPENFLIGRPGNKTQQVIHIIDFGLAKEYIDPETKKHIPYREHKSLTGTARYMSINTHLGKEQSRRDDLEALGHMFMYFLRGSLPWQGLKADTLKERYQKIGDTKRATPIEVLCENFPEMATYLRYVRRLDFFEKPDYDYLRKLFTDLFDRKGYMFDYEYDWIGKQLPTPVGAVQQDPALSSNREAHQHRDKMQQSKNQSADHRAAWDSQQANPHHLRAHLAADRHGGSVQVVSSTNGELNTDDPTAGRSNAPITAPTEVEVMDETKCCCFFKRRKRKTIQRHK
stated.conditions: at 1 µM
quantity.measured: inhibition (%)

INSERT INTO measurements (compound, quantity_measured, recorded_number) VALUES
  ('CC(=O)Nc1cccc(C#Cc2cncnc2Nc2ccc(OCc3cccc(F)c3)c(Cl)c2)n1', 'inhibition', -0.34),
  ('NCc1ccc(-c2nc(-c3ccc(Cl)c(O)c3)c(-c3ccncc3)[nH]2)cc1', 'inhibition', 3.09),
  ('Nc1nc(-c2ccccn2)c(-c2ccc3ncccc3n2)s1', 'inhibition', 17.4),
  ('Cc1cc(O)cc(C)c1/C=C/c1cncc(-c2nn[nH]n2)c1', 'inhibition', 1.13),
  ('COc1cc(C=NNc2ncnc3c2cnn3-c2ccccc2)ccc1O', 'inhibition', 5.99),
  ('CS(=O)(=O)CCNCc1ccc(-c2ccc3ncnc(Nc4ccc(OCc5cccc(F)c5)c(C(F)(F)F)c4)c3c2)o1', 'inhibition', 1.71),
  ('Nc1ncnc2occ(-c3ccc(NC(=O)Nc4cccc(C(F)(F)F)c4)cc3)c12', 'inhibition', 10.3),
  ('O=C1NC(=O)C(c2cccc(Cl)c2)=C1Nc1ccc(O)c(Cl)c1', 'inhibition', 0.9),
  ('COc1ccc2cc(-c3c(-c4ccncc4)nc(-c4ccc([S+](C)[O-])cc4)n3C)ccc2c1 (centres undefined)', 'inhibition', 3.28),
  ('CN1CCC(C(=O)Nc2n[nH]c3nnc(-c4ccccc4)cc23)CC1', 'inhibition', 4.71),
  ('Fc1cccc(COc2ccc(Nc3ncnc4sc(-c5cccs5)cc34)cc2Cl)c1', 'inhibition', 0.1),
  ('CS(=O)(=O)CCNCc1ccc(-c2ccc3ncnc(Nc4ccc(OCc5ccccc5)c(Cl)c4)c3c2)o1', 'inhibition', -0.59),
  ('CCn1c(-c2nonc2N)nc2cnc(Oc3cccc(NC(=O)c4ccc(OCCN5CCOCC5)cc4)c3)cc21', 'inhibition', 1.58),
  ('O=C(Nc1n[nH]c2nc(-c3ccco3)c(Br)cc12)C1CC1', 'inhibition', 0.87),
  ('CCCN1CCC(Oc2cc(Nc3nc(Nc4cccc(F)c4C(N)=O)c4cc[nH]c4n3)c(OC)cc2Cl)CC1', 'inhibition', 20.9),
  ('COc1cc2c(cc1Nc1nc(N3CCc4ccccc43)c3cc[nH]c3n1)N(C(=O)CN(C)C)CC2', 'inhibition', 4.52),
  ('Cc1nnc(-c2ccc(C)c(-c3ccc(C(=O)Nc4cccc(C#N)c4)cc3)c2)o1', 'inhibition', 0.25),
  ('COc1cc2ncn(-c3cc(O[C@@H](C)c4ccccc4Cl)c(C(N)=O)s3)c2cc1OC', 'inhibition', 3.53),
  ('Cc1ccc(C(=O)NC2CCCCC2)cc1-c1ccc(C(=O)NCC2CC2)cc1', 'inhibition', 2.73),
  ('O=C1NC(=O)C(c2ccc(Cl)cc2)=C1Nc1ccc(Cl)c(C(=O)O)c1', 'inhibition', -1.39),
  ('Nc1nc(-c2ccc3c(c2)C(=Cc2cc(Br)c(O)c(Br)c2)C(=O)N3)cs1', 'inhibition', 0.95),
  ('CN(C)c1cc2c(Nc3ccc4nc(Cc5ccccc5)[nH]c4c3)ncnc2cn1', 'inhibition', 4.56),
  ('CS(=O)(=O)CCN(CC#N)Cc1ccc(-c2ccc3ncnc(Nc4ccc(OCc5cccc(F)c5)c(Cl)c4)c3c2)o1', 'inhibition', -4.35),
  ('CS(=O)(=O)CCNCc1nc(-c2ccc3ncnc(Nc4ccc(F)c(Cl)c4)c3c2)cs1', 'inhibition', 3.39),
  ('CCn1c(-c2nonc2N)nc2c(C#CC(C)(C)O)nc(CN3CCCC3)cc21', 'inhibition', 0.33),
  ('CC1=C(C(=O)Nc2ccc3[nH]ncc3c2)C(c2ccc3ccccc3c2)CC(=O)N1 (centres undefined)', 'inhibition', 3.24),
  ('COc1ccc(-c2nn3ncccc3c2-c2ccnc(Nc3ccc(Cl)c(C(F)(F)F)c3)n2)cc1', 'inhibition', 0.7),
  ('CCn1c(-c2nonc2N)nc2cncc(C(=O)N3CC[C@H](N)C3)c21', 'inhibition', 2.9),
  ('Nc1ncnc2occ(-c3ccc(NC(=O)Nc4cc(C(F)(F)F)cc(C(F)(F)F)c4)cc3)c12', 'inhibition', 1.31),
  ('COc1ccc(-c2coc3ncnc(N)c23)cc1', 'inhibition', 5.14),
  ('NS(=O)(=O)c1cccc(-c2ccc3c(NC(=O)C4CC4)n[nH]c3c2)c1', 'inhibition', 2.47),
  ('COc1cc(C)c(NC(=O)CN(C)C)cc1Nc1nc(Nc2cccc(F)c2C(N)=O)c2cc[nH]c2n1', 'inhibition', 20.6),
  ('O=C1NC(=O)C(N2CCc3ccccc32)=C1c1ccc(Cl)cc1', 'inhibition', 3.56),
  ('CS(=O)(=O)Nc1ccc(N/C=C2\C(=O)Nc3ccccc32)cc1', 'inhibition', 3.9),
  ('Cc1cccc(-c2n[nH]cc2-c2ccc3ncccc3n2)n1', 'inhibition', 1.59),
  ('CCn1c(-c2nonc2N)nc2c(C#CC(C)(C)O)nc(OC[C@@H](N)c3ccccc3)cc21', 'inhibition', 1.57),
  ('CC(C)=Cc1cccc2c1/C(=N/Nc1ccc(S(N)(=O)=O)cc1)C(=O)N2', 'inhibition', 2.43),
  ('COc1ccc(COc2ccc(Cc3cnc(N)nc3N)cc2OC)cc1', 'inhibition', 0.85),
  ('COc1cc2ncn(-c3cc(OCc4ccccc4C(F)(F)F)c(C(N)=O)s3)c2cc1OC', 'inhibition', 1.63);

---

target.or.test.system: Epidermal growth factor receptor (Homo sapiens);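 also: values are mean inhibition figures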
stated.conditions: at 1 µM
quantity.measured: inhibition (%)

INSERT INTO measurements (chemical_string, target_or_test_system, units, recorded_number) VALUES
  ('CCN1CCC(CC(=O)Nc2n[nH]c3nc(-c4cccs4)c(Br)cc23)CC1', 'Epidermal growth factor receptor (Homo sapiens)', '%', 3.65),
  ('Cc1nn(C)c2cc(N(C)c3ccnc(Nc4cccc(S(N)(=O)=O)c4)n3)ccc12', 'Epidermal growth factor receptor (Homo sapiens)', '%', 13.9),
  ('COc1cc(C)c(NC(=O)CN(C)C)cc1Nc1nc(Nc2cccc(F)c2C(N)=O)c2cc[nH]c2n1', 'Epidermal growth factor receptor (Homo sapiens)', '%', 5.3),
  ('COc1cc2c(cc1Nc1nc(N3CCc4ccccc43)c3cc[nH]c3n1)N(C(=O)CN(C)C)CC2', 'Epidermal growth factor receptor (Homo sapiens)', '%', 1.28),
  ('Nc1nc(-c2ccc3c(c2)C(=Cc2cc(Br)c(O)c(Br)c2)C(=O)N3)cs1', 'Epidermal growth factor receptor (Homo sapiens)', '%', 5.53),
  ('Cc1cccc(-c2n[nH]cc2-c2ccc3ncccc3n2)n1', 'Epidermal growth factor receptor (Homo sapiens)', '%', 0.24),
  ('CS(=O)(=O)Nc1ccc(N/C=C2\C(=O)Nc3ccccc32)cc1', 'Epidermal growth factor receptor (Homo sapiens)', '%', 1.45),
  ('CCn1c(-c2nonc2N)nc2c(C#CC(C)(C)O)nc(CN3CCCC3)cc21', 'Epidermal growth factor receptor (Homo sapiens)', '%', 1.12),
  ('COC(=O)Nc1nc2cc(Oc3cccc(NC(=O)Nc4cc(C(F)(F)F)ccc4F)c3)ccc2[nH]1', 'Epidermal growth factor receptor (Homo sapiens)', '%', 1.45),
  ('Fc1cccc(COc2ccc(Nc3ncnc4cc(-c5ccc[nH]5)sc34)cc2Cl)c1', 'Epidermal growth factor receptor (Homo sapiens)', '%', 77.3),
  ('Nc1ncnc2occ(-c3ccc(NC(=O)Nc4cccc(C(F)(F)F)c4)cc3)c12', 'Epidermal growth factor receptor (Homo sapiens)', '%', 7.97),
  ('O=C(Nc1n[nH]c2nc(-c3ccco3)c(Br)cc12)C1CC1', 'Epidermal growth factor receptor (Homo sapiens)', '%', 5.12),
  ('Cc1nnc(-c2ccc(C)c(-c3ccc(C(=O)Nc4cccc(C#N)c4)cc3)c2)o1', 'Epidermal growth factor receptor (Homo sapiens)', '%', 8.18),
  ('CC(=O)Nc1cccc(C#Cc2cncnc2Nc2ccc(OCc3cccc(F)c3)c(Cl)c2)n1', 'Epidermal growth factor receptor (Homo sapiens)', '%', 77.7),
  ('O=C1Nc2ccc(C(=O)c3ccco3)cc2C1=Cc1cc(Cl)c(O)c(Cl)c1', 'Epidermal growth factor receptor (Homo sapiens)', '%', 5.16),
  ('NCc1ccc(-c2nc(-c3ccc(Cl)c(O)c3)c(-c3ccncc3)[nH]2)cc1', 'Epidermal growth factor receptor (Homo sapiens)', '%', 21.8),
  ('Cc1cc(O)cc(C)c1/C=C/c1cncc(-c2nn[nH]n2)c1', 'Epidermal growth factor receptor (Homo sapiens)', '%', 15.8),
  ('Cc1ccc(NC(=O)c2ccnc(N3CCCC3)c2)cc1-c1ccc(C(=O)NCC2CC2)cc1', 'Epidermal growth factor receptor (Homo sapiens)', '%', -3.35),
  ('CCCN1CCC(Oc2cc(Nc3nc(Nc4cccc(F)c4C(N)=O)c4cc[nH]c4n3)c(OC)cc2Cl)CC1', 'Epidermal growth factor receptor (Homo sapiens)', '%', 2.64),
  ('COc1ccc(-c2ccncc2)cc1C(N)=O', 'Epidermal growth factor receptor (Homo sapiens)', '%', 4.86);
